Kindly state MC-1 Emax (average; cAMP HBL) for each of the entries shown.
target: human melanocortin-1 receptor hMCR-1 expressed by the human melanoma cell line HBL (human, UniProt Q01726 1-317); assay: cell-based or functional assay
Sequence (Q01726 whole entry): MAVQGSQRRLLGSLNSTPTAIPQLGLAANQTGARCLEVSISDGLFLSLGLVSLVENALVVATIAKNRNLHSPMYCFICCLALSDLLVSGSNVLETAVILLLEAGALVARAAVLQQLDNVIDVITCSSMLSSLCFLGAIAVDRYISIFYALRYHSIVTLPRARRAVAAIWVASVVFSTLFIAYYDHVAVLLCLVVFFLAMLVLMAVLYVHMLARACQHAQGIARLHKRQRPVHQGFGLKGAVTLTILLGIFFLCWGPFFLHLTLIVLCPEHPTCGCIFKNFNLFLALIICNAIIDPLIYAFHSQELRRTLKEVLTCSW
Bridge positions count the residues as written; N and C are the ends. Square brackets hold non-standard residues; d marks the D form. Cit = NC(=O)NCCC[C@H](N)C(=O)O; Nle = CCCC[C@H](N)C(=O)O; Dab = NCC[C@H](N)C(=O)O
Answers are plain numbers, in %.

binder: Ac-[Nle]EH[dF]A[Dab]-NH2 (lactam 2-6; SMILES CCCC[C@H](NC(C)=O)C(=O)N[C@H]1CCC(=O)NCC[C@@H](C(N)=O)NC(=O)[C@H](C)NC(=O)[C@@H](Cc2ccccc2)NC(=O)[C@H](Cc2c[nH]cn2)NC1=O) [Ac-Nle-cyclo(Glu-His-D-Phe-Ala-Dab)-NH2 (SEQ ID NO: 48)]
MC-1 Emax (average; cAMP HBL), %: 73

binder: Ac-[Nle]EH[dF]R[Dab]A-NH2 (lactam 2-6; SMILES CCCC[C@H](NC(C)=O)C(=O)N[C@H]1CCC(=O)NCC[C@@H](C(=O)N[C@@H](C)C(N)=O)NC(=O)[C@H](CCCNC(=N)N)NC(=O)[C@@H](Cc2ccccc2)NC(=O)[C@H](Cc2c[nH]cn2)NC1=O) [Ac-Nle-cyclo(Glu-His-D-Phe-Arg-Dab)-Ala-NH2]
MC-1 Emax (average; cAMP HBL), %: 97

binder: Ac-[Nle]E[Cit][dF]R[Dab]W-NH2 (lactam 2-6) [Ac-Nle-cyclo(Glu-Cit-D-Phe-Arg-Dab)-Trp-NH2 (SEQ ID NO: 54)]
MC-1 Emax (average; cAMP HBL), %: 97

Dear reader, for each entry below, please note its MC-1 Emax (average; cAMP HBL).
1. Ac-[dF]EH[dF]R[Dab]W-NH2 (lactam 2-6) [Ac-D-Phe-cyclo(Glu-His-D-Phe-Arg-Dab)-Trp-NH2]
2. Ac-[Nle]EA[dF]R[Dab]W-NH2 (lactam 2-6) [Ac-Nle-cyclo(Glu-Ala-D-Phe-Arg-Dab)-Trp-NH2 (SEQ ID NO: 52)]

Ans.
1. 75
2. 86
